Reference source for all entries: PubChem BioAssay

Let's look at some compounds and their measured composite z-score.
molecular target: Carbonic anhydrase 2 (Homo sapiens) (UniProt P00918); assay: compounds binding carbonic anhydrase 2 – biochemical, small-molecule microarray, Alexa647-labelled CAII, profiling panel (AID 1122); details: CAII-A647 binding fluorescence, higher = more signal
I only need the number, thanks.

Solved entries (count: 3):
[[record]]
smi = "Cc1ccc(S[C@]2(C(=O)O)CC(=O)N(Cc3ccccc3C(F)(F)F)[C@@H]2c2ccc(CO)cc2I)cc1"
parameter_measured = "composite z-score"
value_observed = 0.502

[[record]]
smi = "[N-]=[N+]=NCc1ccccc1[C@@H]1OC(c2ccc(OCCCO)cc2)=N[C@]1(CCS(=O)(=O)c1ccccc1)C(N)=O"
parameter_measured = "composite z-score"
value_observed = 0.637

[[record]]
smi = "COCCOC(=O)N1C(=O)[C@@]2(c3ccccc31)[C@H](C(=O)N1CCCCCCC1)[C@H]1C(=O)O[C@H](c3ccccc3)[C@H](c3ccccc3)N1[C@@H]2c1ccc(OCCO)cc1"
parameter_measured = "composite z-score"
value_observed = 1.09


Moving on to another compound below.
-- ask Short answer please: composite z-score, Carbonic anhydrase 2 (Homo sapiens) (UniProt P00918), entry COC(=O)[C@@]1(Cc2ccccc2)[C@H]2c3cc(C(=O)N(C)C)n(CCc4c[nH]c5ccc(O)cc45)c3C[C@H]2CN1C(=O)c1ccccc1
-- reply 0.858

* * *

molecular target: Torsin-1A-interacting protein 1 (Homo sapiens); assay: compound microarray binding of lysate hLAP1 – cell lysate, small-molecule microarray, COS7 lysate, 635/667 nm fluorescence, primary screen (AID 1116); conditions: 635 nm fluorescence, higher = more signal
PARAMETER_MEASURED: composite z-score
Form field (numeric): enter value without unit.

[[record]]
compound = "[N-]=[N+]=Nc1ccccc1C[C@@]1(C(=O)N2CCCCC2)N=C(c2ccc(OCCCO)cc2)O[C@@H]1c1ccccc1N=[N+]=[N-]"
parameter_measured = "composite z-score"
value_observed = 0.71

[[record]]
compound = "C=CCC(OC(C)=O)[C@@H]1[C@@H](N(Cc2cc3ccccc3o2)C(=O)Cc2ccc(OC)cc2)c2cc(OCCCO)ccc2N1C(=O)c1ccc2ccccc2c1 (some centres undefined)"
parameter_measured = "composite z-score"
value_observed = 0.0296

[[record]]
compound = "C=CCC(OC(C)=O)[C@@H]1[C@@H](N(Cc2ccc(-c3cccc(C(F)(F)F)c3)o2)C(=O)Cc2ccc(OC)cc2)c2cc(OCCCO)ccc2N1C(=O)c1ccc2ccccc2c1 (some centres undefined)"
parameter_measured = "composite z-score"
value_observed = -0.157

[[record]]
compound = "COCCOC(=O)N1C(=O)[C@@]2(c3cc(C#CCCO)ccc31)[C@H](c1ccc(O)cc1)N1[C@H](c3ccccc3)[C@H](c3ccccc3)OC(=O)[C@H]1[C@@H]2C(=O)N1CCN(c2ncccn2)CC1"
parameter_measured = "composite z-score"
value_observed = 1.68

[[record]]
compound = "C=C(/C(=C/C[C@H](OC(C)=O)c1ccc(OCCO)cc1)c1cc(C(=O)OC)ccc1OC)C(C)C"
parameter_measured = "composite z-score"
value_observed = 1.2

[[record]]
compound = "O=C1C2C=CC(C(O)c3ccc4c(c3)OCO4)N(Nc3ccc([N+](=O)[O-])cc3)C2C(=O)N1c1ccccc1 (centres undefined)"
parameter_measured = "composite z-score"
value_observed = -0.181


-- ask I'd like to know its composite z-score. The compound in question is NC(=O)[C@@]1(Cc2ccccc2)N=C(c2ccc(OCCCO)cc2)O[C@H]1c1ccccc1
-- reply 3.1

-- ask Param item = CC(C)N1CC=CC23O[C@@H]4C=CCOC(=O)[C@@H]4[C@H]2C(=O)N(CCCCCO)[C@@H]3C1=O (some centres undefined) ; retrieve measured composite z-score.
-- reply 1.33

-- ask What composite z-score value was documented for this compound, CN1C(=O)C2C=CC(C(O)c3ccccc3)N(N3CCCCC3)C2C1=O (centres undefined) ?
-- reply 0.411

-- ask For the compound shown here, NC(=O)[C@@H]1[C@H]2C(=O)O[C@H](c3ccccc3)[C@H](c3ccccc3)N2[C@H](c2ccc(OCCO)cc2)[C@@]12C(=O)Nc1ccc(C#CC3=CCCCC3)cc12 , give the reported composite z-score.
-- reply 1.06

-- ask Item COc1ccc([Si](C)(C)[C@@H]2[C@@H](CCn3cc(CCO)nn3)O[C@]3(C(=O)N(Cc4cccc(N5C(=O)c6cccc7cccc5c67)c4)c4ccccc43)[C@H]2C)cc1 has what recorded composite z-score?
-- reply 0.868

* * *

assay: probe aDKK1 binding to arrayed compounds – biochemical, biotinylated probe, 635/667 nm fluorescence, primary screen (AID 1099); conditions: small-molecule microarray, higher = more signal;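 note: score merges 667nm spot fluorescence with signal to noise across triplicate slides; reference of the scale not given here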
Values of composite z-score greater than or equal to 0.1 map to Met; values below map to Not met.

Worked examples follow.
[[record]]
compound = "O=C1NC(=O)C2C1C=CC(C(O)C1CC=CCC1)N2Nc1ccccn1 (stereo not drawn)"
label_value = "Met"

[[record]]
compound = "CC(=O)NCCCC[C@@H]1NC(=O)[C@H]2C[C@@H](C(=O)O)[C@@H](c3ccc(O)cc3)N2C1=O"
label_value = "Met"


-- ask Confirm if composite z-score reported for the compound NC(=O)[C@@]1(Cc2ccccc2)N=C(c2ccc(OCCCO)cc2)O[C@H]1c1ccccc1 is 0.1 or above.
-- reply Met

* * *

test: probe aNOTCH3 binding on compound microarray – biochemical, small-molecule microarray, 635/667 nm fluorescence, primary screen (AID 1120); conditions: higher = more signal;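 note: probe is a biotin-tagged antibody raised against NOTCH3 rather than NOTCH3 protein; score merges spot fluorescence near 667 nm with spot signal to noise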
Please enter yes (1) where composite z-score is greater than or equal to 0.1, and no (0) where it is lower.

// known answers, use as guide
[[record]]
compound = "CCCC1(C(=O)OC)C=C2C(=C(c3ccccc3)C(=O)C2C)CN1 (configuration not stated)"
label_value = "no (0)"

[[record]]
compound = "[N-]=[N+]=NCc1ccccc1[C@H]1OC(c2ccc(OCCCO)cc2)=N[C@@]1(Cc1ccccc1)C(=O)N1CCCCC1"
label_value = "yes (1)"

[[record]]
compound = "CCOc1ccc(N2C(=O)CSC2c2cccc([N+](=O)[O-])c2)cc1 (configuration not stated)"
label_value = "yes (1)"


-- ask # bool: composite z-score of O=C1OCCC=C[C@H]2OC34C=CCN(CCN5CCOCC5)C(=O)[C@H]3N(CCCCCO)C(=O)[C@@H]4C12 (some centres not stated) >= 0.1
-- reply no (0)

-- ask Identify whether the reported composite z-score of the following compound is 0.1 or greater: CCCCN1CC=CC23O[C@@H]4C=CCOC(=O)[C@@H]4[C@H]2C(=O)N(CCCCCCO)[C@@H]3C1=O (some centres not stated)
-- reply no (0)

-- ask Please tell me: is the compound COc1ccc(NN2C(C(O)c3ccc(N(C)C)cc3)C=CC3C(=O)N(C4CCCCC4)C(=O)C32)cc1 (configuration not stated) at or over 0.1 in terms of composite z-score?
-- reply yes (1)

-- ask Reported composite z-score at or above 0.1? COc1cc2c(cc1O)C=[N+](Cc1cc3c(cc1Br)OCO3)CC2
-- reply no (0)

-- ask Determine whether this compound has composite z-score no lower than 0.1: O=C1O[C@@H](c2ccccc2)[C@@H](c2ccccc2)N2[C@@H](c3ccc(OCCO)cc3)[C@]3(C(=O)Nc4ccc(C#CC5=CCCCC5)cc43)[C@@H](C(=O)N3CCCCCCC3)[C@H]12
-- reply yes (1)

-- ask Is reported composite z-score greater than or equal to 0.1 here: CC#CC(=O)Oc1ccc(Br)cc1C=CC(=O)OCC
-- reply yes (1)

-- ask Could you verify whether the entry CC=CC(O)C1C=CC2C(=O)N(C)C(=O)C2N1N(c1ccccc1)c1ccccc1 (configuration not stated) shows composite z-score of no less than 0.1?
-- reply no (0)

-- ask # check: composite z-score of C[N+](C)(C)CCCC[C@@H]1NC(=O)[C@H]2C[C@@H](C(=O)NCCCCCCNC(=O)CS)[C@@H](c3ccc(O)cc3)N2C1=O is greater than or equal to 0.1
-- reply no (0)

* * *

assay: FRG1 expression reporter modulators in myotubes – cell-based, C2C12 myotubes, firefly/Renilla luciferase, luminescence, FRG1 inhibition for FSHD, primary screen (AID 1084); details: FRG1 promoter luciferase, higher = more signal, called active from +8 up or from −8 down
Mark 1 (yes) for reported z-score of -0.6 or greater; mark 0 (no) for anything smaller.

See these solved cases before continuing.
[[record]]
molecule = "CC(C)NC(=O)[C@@]1(Cc2ccccc2I)c2ccccc2C(=O)N(Cc2ccccc2Cl)[C@H]1c1ccc(CO)cc1"
label_value = "0 (no)"

[[record]]
molecule = "CC(C)=CCCC(C)=CC(O)C1C=CC2C(=O)N(c3ccccc3)C(=O)C2N1Nc1ccc(C(C)C)cc1 (centres undefined)"
label_value = "1 (yes)"

[[record]]
molecule = "CCCCN1CC=CC23O[C@@H]4/C=C\\CCCOC(=O)C4[C@H]2C(=O)N(CCCO)[C@@H]3C1=O (some centres undefined)"
label_value = "1 (yes)"


-- ask # check: z-score of CCCCC(=C=CC[C@@H](O)c1cccc(OCCO)c1)C[C@@H](O)c1ccccn1 is greater than or equal to -0.6
-- reply 1 (yes)

-- ask Could you tell me if the measured z-score of CCOC(=O)C[C@H]1[C@H](OC(=O)c2ccc(-c3ccccc3)cc2)[C@@H](NC(=O)c2ccccc2)c2cc(OCCCO)ccc2N1C(=O)Cc1ccc(OC)cc1 reaches -0.6 or more?
-- reply 1 (yes)

-- ask Given CC(=O)n1cc(C(O)C2C=CC3C(=O)NC(=O)C3N2Nc2ccccn2)c2ccccc21 (centres undefined) , state whether its z-score is at least -0.6.
-- reply 1 (yes)

-- ask Does z-score meet or surpass -0.6 for CCOC(=O)C1=CC[C@@H](c2ccccc2)N(S(=O)(=O)c2ccc(C)cc2)[C@H]1c1ccc(CC)cc1 ?
-- reply 0 (no)

-- ask Does the molecule CC(c1ccccc1)C(O)C1C=CC2C(=O)N(C)C(=O)C2N1NC(=O)OC(C)(C)C (centres undefined) have recorded z-score that is -0.6 or more?
-- reply 1 (yes)
